- TARGET_OR_TEST_SYSTEM: Lysosomal acid glucosylceramidase (Homo sapiens) (UniProt P04062)
- Sequence (P04062 whole entry N409S): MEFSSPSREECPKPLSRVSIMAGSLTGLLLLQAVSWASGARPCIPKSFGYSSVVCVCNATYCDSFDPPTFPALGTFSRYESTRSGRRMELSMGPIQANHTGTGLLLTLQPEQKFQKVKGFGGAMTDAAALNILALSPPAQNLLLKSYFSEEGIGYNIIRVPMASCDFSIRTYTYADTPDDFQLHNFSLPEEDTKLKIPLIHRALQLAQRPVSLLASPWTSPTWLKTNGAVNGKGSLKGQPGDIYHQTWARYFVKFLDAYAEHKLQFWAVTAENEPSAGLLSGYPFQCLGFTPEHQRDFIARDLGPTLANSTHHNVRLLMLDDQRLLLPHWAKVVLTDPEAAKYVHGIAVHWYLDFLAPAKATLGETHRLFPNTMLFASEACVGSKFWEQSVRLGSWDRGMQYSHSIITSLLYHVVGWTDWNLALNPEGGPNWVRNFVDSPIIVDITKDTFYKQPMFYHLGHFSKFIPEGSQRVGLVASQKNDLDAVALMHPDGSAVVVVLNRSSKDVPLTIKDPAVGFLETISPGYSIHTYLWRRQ
- PROCEDURE_TEXT: qHTS Assay for Inhibitors and Activators of N370S glucocerebrosidase as a Potential Chaperone Treatment of Gaucher Disease: Primary Screen Confirmation
- EXPERIMENTAL_CONTEXT: N370S glucocerebrosidase enzyme activity, fluorogenic substrate; series mostly up to 54 µM
Records with an inconclusive call do not appear. Activity calls are given as the source filed them. Calls follow the shape of the dose curve; as a rule, active = well fitted curve in the direction sought with a large enough effect; inconclusive = small, poorly fitted or top-dose-only effect, or another doubt; inactive = no such curve, though single readings can be large or run the other way.
Labels: active, inactive

STRUCTURE_STRING | CLASS
Cc1cc2[nH]c(=O)c(=O)[nH]c2cc1S(=O)(=O)N1CCN(c2cccc(C)c2C)CC1 | active
C#CCOCCOCCOCCNc1nc(N2CCN(C(=O)CCCCCCCCCCNC(=O)[C@H](CO)n3cc(CCCSC)nn3)CC2)nc(N2CCN(C(=O)CCCCCCCCCCNC(=O)[C@H](CCCN=C(N)N)n3cc(C[C@@H](C)CC)nn3)CC2)n1 | active
COc1ccccc1NC(=O)COc1ccccc1C(=O)Nc1ccccc1 | inactive
Cc1ccc(S(=O)(=O)N2CCN(c3nc(-c4cnccn4)nc4ccccc34)CC2)cc1 | inactive
Cc1cc(C)cc(N(CC(=O)Nc2ccc(C)cc2Cl)S(=O)(=O)c2c(C)[nH]c(=O)[nH]c2=O)c1 | active
O=S(=O)(c1ccc(Cl)cc1)N1CCN(c2nc(-c3ccccc3)nc3ccccc23)CC1 | active
O=S(=O)(c1cnc2ccccc2c1)N1CCN(c2nc(-c3cccs3)nc3ccccc23)CC1 | active
O=S(=O)(c1ccccc1)N1CCN(c2nccc(-c3cccs3)n2)CC1 | inactive
CCOCCCNc1nc(-c2ccccc2)nc2ccccc12 | active
